These entries and their values trace back to paper PMC7037682.

Entries and their measured MRT follow.
PROCEDURE_SUMMARY: Plasma pharmacokinetics of ginsenosides in rats after 1-week repeated RGE
CONDITIONS_USED: rat, plasma, po, 1.5 g/kg/day

- MOLECULE: "CC(C)=CCC[C@](C)(O[C@@H]1O[C@H](CO)[C@@H](O)[C@H](O)[C@H]1O)[C@H]1CC[C@]2(C)[C@@H]1[C@H](O)C[C@@H]1[C@@]3(C)CC[C@H](O[C@@H]4O[C@H](CO)[C@@H](O)[C@H](O)[C@H]4O[C@@H]4O[C@H](CO)[C@@H](O)[C@H](O)[C@H]4O)C(C)(C)[C@@H]3CC[C@]12C [Rd, ginsenoside Rd]"
  UNIT_NAME: "h"
  MRT: 20.8
- MOLECULE: "CC(C)=CCC[C@](C)(O[C@@H]1O[C@H](CO[C@@H]2O[C@@H](CO)[C@H](O)[C@H]2O)[C@@H](O)[C@H](O)[C@H]1O)[C@H]1CC[C@]2(C)[C@@H]1[C@H](O)C[C@@H]1[C@@]3(C)CC[C@H](O[C@@H]4O[C@H](CO)[C@@H](O)[C@H](O)[C@H]4O[C@@H]4O[C@H](CO)[C@@H](O)[C@H](O)[C@H]4O)C(C)(C)[C@@H]3CC[C@]12C [Rc, ginsenoside Rc]"
  UNIT_NAME: "h"
  MRT: 18.4
- MOLECULE: "CC(C)=CCC[C@](C)(O[C@@H]1O[C@H](CO[C@@H]2OC[C@H](O)[C@H](O)[C@H]2O)[C@@H](O)[C@H](O)[C@H]1O)[C@H]1CC[C@]2(C)[C@@H]1[C@H](O)C[C@@H]1[C@@]3(C)CC[C@H](O[C@@H]4O[C@H](CO)[C@@H](O)[C@H](O)[C@H]4O[C@@H]4O[C@H](CO)[C@@H](O)[C@H](O)[C@H]4O)C(C)(C)[C@@H]3CC[C@]12C [Rb2, ginsenoside Rb2]"
  UNIT_NAME: "h"
  MRT: 18.6
- MOLECULE: "CC(C)=CCC[C@](C)(O[C@@H]1O[C@H](CO[C@@H]2O[C@H](CO)[C@@H](O)[C@H](O)[C@H]2O)[C@@H](O)[C@H](O)[C@H]1O)[C@H]1CC[C@]2(C)[C@@H]1[C@H](O)C[C@@H]1[C@@]3(C)CC[C@H](O[C@@H]4O[C@H](CO)[C@@H](O)[C@H](O)[C@H]4O[C@@H]4O[C@H](CO)[C@@H](O)[C@H](O)[C@H]4O)C(C)(C)[C@@H]3CC[C@]12C [Rb1, ginsenoside Rb1]"
  UNIT_NAME: "h"
  MRT: 17.1

====

Entries and their measured pIC50 follow.
TARGET_DESC: UniProt:Q9NPD5
Sequence (Q9NPD5 1-702): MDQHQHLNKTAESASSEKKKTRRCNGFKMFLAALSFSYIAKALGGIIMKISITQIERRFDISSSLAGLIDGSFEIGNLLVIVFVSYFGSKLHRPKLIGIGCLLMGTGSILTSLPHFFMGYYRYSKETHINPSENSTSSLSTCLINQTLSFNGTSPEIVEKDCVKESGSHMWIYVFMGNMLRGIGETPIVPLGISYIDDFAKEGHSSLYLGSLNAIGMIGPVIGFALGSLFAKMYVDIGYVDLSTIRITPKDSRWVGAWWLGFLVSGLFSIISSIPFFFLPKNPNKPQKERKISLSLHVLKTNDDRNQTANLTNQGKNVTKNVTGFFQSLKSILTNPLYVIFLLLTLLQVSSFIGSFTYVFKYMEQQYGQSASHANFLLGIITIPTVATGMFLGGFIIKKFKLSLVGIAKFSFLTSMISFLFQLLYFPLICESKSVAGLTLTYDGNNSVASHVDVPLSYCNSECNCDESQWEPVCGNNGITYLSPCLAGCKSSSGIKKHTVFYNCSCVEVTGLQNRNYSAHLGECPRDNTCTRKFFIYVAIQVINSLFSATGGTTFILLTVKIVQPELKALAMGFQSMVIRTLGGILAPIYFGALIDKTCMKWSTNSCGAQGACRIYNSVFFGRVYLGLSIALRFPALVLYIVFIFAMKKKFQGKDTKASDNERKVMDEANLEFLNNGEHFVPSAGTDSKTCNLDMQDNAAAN
PROCEDURE_SUMMARY: Inhibition of OATP1B3-mediated valsartan uptake in HEK293-OATP1B3 cells
Format: cell-based
Set-up: host or cells: HEK293
CONDITIONS_USED: 5 μM valsartan, 5 min
pIC50: −log10 of the molar value.

- MOLECULE: "CC(C)=CCC[C@](C)(O[C@@H]1O[C@H](CO[C@@H]2O[C@@H](CO)[C@H](O)[C@H]2O)[C@@H](O)[C@H](O)[C@H]1O)[C@H]1CC[C@]2(C)[C@@H]1[C@H](O)C[C@@H]1[C@@]3(C)CC[C@H](O[C@@H]4O[C@H](CO)[C@@H](O)[C@H](O)[C@H]4O[C@@H]4O[C@H](CO)[C@@H](O)[C@H](O)[C@H]4O)C(C)(C)[C@@H]3CC[C@]12C [Rc, ginsenoside Rc]"
  pIC50: 5.72
- MOLECULE: "CC(C)=CCC[C@](C)(O[C@@H]1O[C@H](CO[C@@H]2OC[C@H](O)[C@H](O)[C@H]2O)[C@@H](O)[C@H](O)[C@H]1O)[C@H]1CC[C@]2(C)[C@@H]1[C@H](O)C[C@@H]1[C@@]3(C)CC[C@H](O[C@@H]4O[C@H](CO)[C@@H](O)[C@H](O)[C@H]4O[C@@H]4O[C@H](CO)[C@@H](O)[C@H](O)[C@H]4O)C(C)(C)[C@@H]3CC[C@]12C [Rb2, ginsenoside Rb2]"
  pIC50: 5.29
- MOLECULE: "CO[C@H]1/C=C/O[C@@]2(C)Oc3c(C)c(O)c4c(O)c(c(/C=N/N5CCN(C)CC5)c(O)c4c3C2=O)NC(=O)/C(C)=C\\C=C\\[C@H](C)[C@H](O)[C@@H](C)[C@@H](O)[C@@H](C)[C@H](OC(C)=O)[C@@H]1C [Rifampin, rifampin, reference compound]"
  pIC50: 5.44
